Assay: chemical genetic growth profiling, strain panel (AID 1159580);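 further: tested at 20 µM; growth read once vehicle control cultures reached saturation at 30 °C; 1 = growth at the plate median or of vehicle wells; lower values mean less growth of the strain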
Details: S. cerevisiae deletion strains, growth OD, locus YPL051W, strain arl3, active compounds read low
Hit rate of the full screen: of about 5,500 compounds, about 2,000 (36%) were called active. Inconclusive results (about 18%) are left out. This is one part of the list. Where a SMILES comes first, the peptide text is derived from it.
Can you tell me normalized growth for the items I'm about to list?
Answers are plain numbers.

// for each compound in input: emit normalized growth
1. Cc1ccc(C(=O)c2ccc(CC(=O)O)n2C)cc1
2. CCC(C)C(=O)c1c(O)c(C)c2oc3c(C)c(O)c(C(=O)C(C)CC)c(O)c3c2c1O (configuration not stated)
3. CC(=O)N[C@@H](CCC(=O)O)C(=O)O
4. CC(=O)N[C@@H](CC(=O)O)C(=O)N[C@@H](CCC(=O)O)C(=O)O (Ac-Asp-Glu-OH)
5. O=c1cccc2n1CC1CC2CN2CCCC[C@@H]12 (some centres not stated)
6. NC(N)=NCCCCN=C(N)N

1.01
0.923
1.03
1.01
1
1.04

Documented normalized growth of NC(N)=NCCN1CCCCCCC1 : 1.02

====

Assay: chemical genetic growth profiling, strain panel (AID 1159580)
Conditions: S. cerevisiae deletion strains, growth OD, locus YER110C, active compounds read low
Out of some 5,500 compounds screened, about 2,000 (36%) were called active. About 18% were inconclusive and are not listed. This is one part of the list.
Can you tell me normalized growth for the items I'm about to list?
Answers are plain numbers.

INSERT INTO results (molecule, readout_name, measurement) VALUES
  ('NC(C(=O)O)C(O)C(=O)O (stereo unspecified)', 'normalized growth', 1.03),
  ('C[C@]12C=CC(=O)C=C1CCC1C2[C@@H](O)C[C@@]2(C)C1CC[C@]2(O)C(=O)CO (stereo partly specified)', 'normalized growth', 0.975),
  ('CC(=O)O[C@H]1CC[C@@]2(C)C(C[C@@H](OC(C)=O)[C@]3(C)C2CC[C@@]2(C)[C@H](c4ccoc4)OC(=O)[C@H]4O[C@]423)C1(C)C (stereo partly specified)', 'normalized growth', 1.02);

// for each molecule in input: emit normalized growth
1. CC(C)(S)[C@@H](N)C(=O)O
2. O=C(O)C(O)C(O)C(O)C(O)C(=O)O (stereo unspecified)

1. 0.989
2. 0.982

Documented normalized growth of Cc1onc(-c2ccccc2)c1-c1ccc(S(N)(=O)=O)cc1 : 0.997

====

Experiment: chemical genetic growth profiling, strain panel (AID 1159580)
Conditions: S. cerevisiae deletion strains, growth OD, locus YDL132W, strain cdc53
Out of some 5,500 compounds screened, about 2,000 (36%) were called active. Inconclusive results (about 18%) are left out. Rule as the data show it: active = normalized growth mostly below about 0.91 (no sharp cut-off); inconclusive = no clear call, values can overlap the other calls; inactive = mostly above about 0.92. The list shows a part of the results.
# valid calls are TRUE for active, FALSE for inactive; nothing else

// below: answered compounds
INSERT INTO assay_data (compound, classification) VALUES
  ('CC(C)(C)C1=C(C#N)C(c2c(Cl)cccc2Cl)C(C#N)=C(N)O1 (stereo not drawn)', 'FALSE'),
  ('CC1C(c2ccccc2)N(C)C(c2ccccc2)CC1(O)c1ccc(F)cc1 (stereo not drawn)', 'FALSE'),
  ('Cc1c(S(=O)(=O)Nc2cccc([N+](=O)[O-])c2)sc2ccc(Cl)cc12', 'FALSE'),
  ('COc1ccc(Nc2nc(NC(=O)Nc3ccc(Cl)cc3)n[nH]2)cc1', 'FALSE'),
  ('Nc1ccccc1C(=O)Nc1cc(C(F)(F)F)cc(C(F)(F)F)c1', 'FALSE');

Would you mind telling me which call this test gave N#Cc1cccc(CSc2nc3ccc(C(F)(F)F)cc3[nH]2)c1 ? FALSE

Would you mind telling me which call this test gave O=S(=O)(NCc1cc(Cl)cc(Cl)c1)c1cc(C(F)(F)F)cc(C(F)(F)F)c1 ? FALSE

Would you mind telling me which call this test gave Clc1ccc(CSc2nccn2-c2cc(Cl)ccc2Cl)cc1 ? FALSE

Would you mind telling me which call this test gave CN(C)c1ccc(/C=C/c2ccc3ccccc3[n+]2C)cc1 ? FALSE

Would you mind telling me which call this test gave O=C(Oc1ccc2ccccc2c1C1SCCS1)c1ccc([N+](=O)[O-])o1 ? FALSE

Would you mind telling me which call this test gave O=C(Nc1ccncc1)c1cc(-c2ccccc2)oc1C(F)(F)F ? FALSE

Would you mind telling me which call this test gave Cc1noc(C)c1S(=O)(=O)Nc1csc(C(F)(F)F)c1-c1ccccc1 ? FALSE

====

Can you tell me normalized growth for the items I'm about to list?
Experiment: chemical genetic growth profiling, strain panel (AID 1159580);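 further: tested at 20 µM; growth read once vehicle control cultures reached saturation at 30 °C; 1 = growth at the plate median or of vehicle wells; lower values mean less growth of the strain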
Conditions: S. cerevisiae deletion strains, growth OD, locus YPR167C, strain met16, active compounds read low
The campaign covered roughly 5,500 compounds. About 2,000 (36%) were called active. Not shown: some 18% with an inconclusive outcome. This is one part of the list.

Worked cases, answers included:
INSERT INTO results (compound, measurement) VALUES
  ('CCC(=O)OC1[C@@H]2CC3=C4CC(=O)O[C@@H](c5ccoc5)[C@]4(C)CCC3[C@@](C)(C2=O)[C@@H](CC(=O)OC)C1(C)C (some centres undefined)', '0.998 (inactive)'),
  ('CC(C)/C(O)=C1/C(=O)O[C@@H](c2ccoc2)[C@]2(C)C(O)[C@@H](O)[C@@]34OC5(C)OC67CC(C)(C(O)[C@]6(O)[C@@H](O)[C@]3(O5)C12)[C@H](CC(=O)O)[C@]74C (some centres undefined)', '1.01 (inactive)');

// for each compound in input: emit normalized growth
1. C1N2CN3CN1CN(C2)C3
2. CCCCCCCCCCCCCC(=O)OC1C(C)C2(O)C(C=C(CO)CC3(O)C(=O)C(C)=CC32)C2C(C)(C)C12OC(C)=O (centres undefined)

["0.978 (inactive)", "1 (inactive)"]

====

Assay: chemical genetic growth profiling, strain panel (AID 1159580);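 further: tested at 20 µM; growth read once vehicle control cultures reached saturation at 30 °C; 1 = growth at the plate median or of vehicle wells; lower values mean less growth of the strain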
Conditions: S. cerevisiae deletion strains, growth OD, locus YMR205C, strain PFK2, active compounds read low
Out of some 5,500 compounds screened, about 2,000 (36%) were called active. About 18% were inconclusive and are not listed. The list shows a part of the results.
Mark satisfied only when normalized growth stays strictly below 0.9. Values equal to the cut-off are not satisfied.

// below: answered molecules
INSERT INTO results (molecule, classification) VALUES
  ('COc1ccc2c(c1)OCC(Cc1ccc(OC)c(OC(C)=O)c1)C2=O (configuration not stated)', 'not satisfied'),
  ('CC1OC(O[C@H]2/C=C/C=C/C=C/C=C/C=C/C=C/C=C/[C@H](C)[C@@H](O)[C@@H](C)[C@H](C)OC(=O)CC(O)CC(O)CCC(O)C(O)CC(O)C[C@]3(O)C[C@H](O)C(C(=O)O)C(C2)O3)C(O)[C@H](N)C1O (some centres not stated)', 'satisfied'),
  ('COc1ccc2c(c1)OCC(Cc1ccc(OC)c(O)c1)C2=O (configuration not stated)', 'satisfied'),
  ('COc1ccc2c(c1)OCC(Cc1ccc(O)c(OC)c1)C2=O (configuration not stated)', 'not satisfied');

Could you now look at the following molecule, please?
Below 0.9 on normalized growth? Entry CC1C/C=C/C=C/C=C/C=C/C(O[C@@H]2O[C@H](C)[C@@H](O)[C@H](N)[C@@H]2O)CC2OC(O)(CC(O)CC3OC3/C=C/C(=O)O1)CC(O)C2C(=O)O (some centres not stated) not satisfied

====

Experiment: chemical genetic growth profiling, strain panel (AID 1159580);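 further: tested at 20 µM; growth read once vehicle control cultures reached saturation at 30 °C; 1 = growth at the plate median or of vehicle wells; lower values mean less growth of the strain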
Details: S. cerevisiae deletion strains, growth OD, locus YER111C, strain swi4, active compounds read low
About 2,000 (36%) of roughly 5,500 compounds were called active. Inconclusive results (about 18%) are left out. This is one part of the list.
readout_name: normalized growth
Give bare numbers.

INSERT INTO results (compound, readout_name, measurement) VALUES
  ('COc1ccc2nc(S(=O)Cc3ncc(C)c(OC)c3C)[nH]c2c1 (stereo unspecified)', 'normalized growth', 1.02),
  ('CC(=O)O[C@@H]1CC2C(C)(C)[C@H](O)CC[C@]2(C)C2CC[C@@]3(C)[C@H](c4ccoc4)OC(=O)C4OC43[C@@]21C (stereo partly specified)', 'normalized growth', 1.02),
  ('CC(=O)O[C@H]1C[C@@H](OC(C)=O)C(C)(C)C2C[C@@H](OC(C)=O)[C@]3(C)C(CC[C@@]4(C)[C@H](c5ccoc5)OC(=O)[C@H]5O[C@]543)[C@]21C (stereo partly specified)', 'normalized growth', 0.988);

// for each compound in input: emit normalized growth
1. CC1(C)C(=O)[C@@H]2O[C@@H]2[C@@]2(C)C1C[C@@H](O)[C@]1(C)C2CC[C@@]2(C)[C@H](c3ccoc3)OC(=O)C3OC321 (stereo partly specified)
2. CC(=O)O[C@@H]1CC2C(C)(C)[C@@H](O)CC[C@]2(C)C2CC[C@@]3(C)[C@H](c4ccoc4)OC(=O)[C@H]4O[C@]43[C@@]21C (stereo partly specified)
3. CC(=O)O[C@H]1C[C@@H](OC(C)=O)C(C)(C)C2C[C@@H](O)[C@]3(C)C(CC[C@@]4(C)[C@H](c5ccoc5)OC(=O)[C@H]5O[C@]543)[C@]21C (stereo partly specified)

1: 0.996; 2: 0.98; 3: 0.975
